biological target: HCV protease D168E (Hepatitis C virus genotype 1a, UniProt P27958, D1194E); assay: biochemical
Measured property: IC50 (nM)
Answers are plain numbers, in nM.

(Q) Item: `CC(C)(C)OC(=O)N[C@H]1CCCCC/C=C\[C@@H]2C[C@@]2(C(=O)NS(=O)(=O)C2CC2)NC(=O)[C@@H]2C[C@@H](OC(=O)N3Cc4cccc(F)c4C3)CN2C1=O` Test system: HCV protease D168E (Hepatitis C virus genotype 1a, UniProt P27958, D1194E) Read-out: IC50 Value: ?
(A) 38.9

---

biological target: wild-type HCV protease (Hepatitis C virus genotype 1a, UniProt P27958)
Measured property: IC50 (nM)
One number for each entry, in nM.

(Q) # IC50 lookup, item `CC(C)(C)OC(=O)N[C@H]1CCCCC/C=C\[C@@H]2C[C@@]2(C(=O)NS(=O)(=O)C2CC2)NC(=O)[C@@H]2C[C@@H](OC(=O)N3Cc4cccc(F)c4C3)CN2C1=O`
(A) 1.3

---

biological target: HCV protease D168Y (Hepatitis C virus genotype 1a, UniProt P27958, D1194Y); assay: biochemical
Measured property: pIC50
Give bare numbers, as −log10 of the molar value.

(Q) # pIC50 lookup, item `CC(C)(C)OC(=O)N[C@H]1CCCCC/C=C\[C@@H]2C[C@@]2(C(=O)NS(=O)(=O)C2CC2)NC(=O)[C@@H]2C[C@@H](OC(=O)N3Cc4cccc(F)c4C3)CN2C1=O`
(A) 7.46
